Field: GI50. Provide a value for each of the compounds that follow.
system: HOP-62; test: NCI tumour cell line growth inhibition, 48 h
Activity calls are given as the source filed them. Cut-off read from the data, not from the text of the source: active = GI50 up to about 1.1 µM and inactive = higher.

Task item: Consider the compound O=C(O)CC1CC=C[C@H]2c3cc4c(cc3C(=O)NC12)OCO4 (stereo not given in full) . State its measured GI50.
Reply: > 75 µM (inactive)

Task item: Consider the compound CCOC1(OCC)N=C(N)C2(C#N)C3(C(=O)N(C(C)C)N=C3C)C12C#N (stereo not given) . State its measured GI50.
Reply: > 100 µM (inactive)

Task item: Consider the compound COC(=O)C1=C(c2ccc3c(c2)OCO3)OC(c2cc(OC)c(OC)c(OC)c2)C1 (stereo not given) . State its measured GI50.
Reply: > 100 µM (inactive)

Task item: Consider the compound "Cc1nn(C)c(=O)c2nn(-c3ccccc3)c(C)c12" . State its measured GI50.
Reply: > 100 µM (inactive)

Task item: Consider the compound "O=C(CN1CCN(C(=O)OCc2ccccc2)CCN(CC(=O)N2CCCCC2)CCN(C(=O)OCc2ccccc2)CC1)N1CCCCC1" . State its measured GI50.
Reply: 19.5 µM (inactive)

Task item: Consider the compound "Cc1cccc(C)c1NC(=S)NC=C(C(N)=O)C(N)=O" . State its measured GI50.
Reply: > 100 µM (inactive)

Task item: Consider the compound CC(C)(Cl)C(Cl)CC/C(CBr)=C(\Cl)CCl (stereo not given) . State its measured GI50.
Reply: 11.8 µM (inactive)

Task item: Consider the compound "Cc1c(C)c(C)c(-n2[nH]c(=O)n(C)c2=O)c(C)c1C" . State its measured GI50.
Reply: > 100 µM (inactive)

Task item: Consider the compound COc1ccc(C2C3=CONC3CC3CCCCC32)cc1 (stereo not given) . State its measured GI50.
Reply: > 100 µM (inactive)

Task item: Consider the compound "O/N=C/c1ccc(O)c(O)c1" . State its measured GI50.
Reply: > 100 µM (inactive)

----------
system: HOP-62; assay: NCI tumour cell line growth inhibition, 48 h
Calls of active or inactive are those of the source. No stated cut-off is given here; in the data, active = GI50 up to about 1.1 µM and inactive = higher.
assay.endpoint: GI50

Task item: Consider the compound O=C1c2ccccc2NC(c2cc(Cl)cc(Cl)c2O)N1CCc1ccccn1 (centres undefined) . State its measured GI50.
Reply: > 100 µM (inactive)

Task item: Consider the compound CC[C@]1(Cc2ccc(OC)c(OC)c2)C=[N+]([O-])O[C@H](OC2CCCC2(c2ccccc2)c2ccccc2)[C@@H]1OC(=O)C(C)(C)C (some centres undefined) . State its measured GI50.
Reply: 2.49 µM (inactive)

Task item: Consider the compound "C=C(C)[C@H]1C=C[C@@H](OC(=O)c2cccnc2)[C@@]23CO[C@@](C)([C@H](OC(=O)c4cccnc4)[C@@]4(OC(C)=O)C[C@H](C)[C@H](OCCC)[C@@H]4[C@H]2OC(C)=O)[C@H]13" . State its measured GI50.
Reply: 10.9 µM (inactive)

Task item: Consider the compound "O=c1[nH]c(=O)n(COC(CO)CO)cc1-c1ccccc1" . State its measured GI50.
Reply: > 100 µM (inactive)

Task item: Consider the compound O=c1cc(-c2ccc(O)cc2)oc2cc(O)cc(O)c12 [APIGENIN] . State its measured GI50.
Reply: 43.6 µM (inactive)

Task item: Consider the compound "CC(C)=NN/C(=N\c1ccc(Cl)cc1)NS(=O)(=O)c1ccc(C)cc1" . State its measured GI50.
Reply: 69 µM (inactive)

Task item: Consider the compound "N#C/C(=C1\OC(=O)C(c2ccc(Br)cc2)=C1O)c1ccc(Br)cc1" . State its measured GI50.
Reply: 19.2 µM (inactive)

Task item: Consider the compound "Nc1nc(S)nc(C(=O)Nc2ccc(Cl)c(Cl)c2)c1-c1ccc(Cl)cc1" . State its measured GI50.
Reply: > 100 µM (inactive)

Task item: Consider the compound OC[C@H]1O[C@@H](Oc2cc(O)cc(/C=C/c3ccc(O)cc3)c2)[C@H](O)[C@@H](O)[C@@H]1O [PICEID] . State its measured GI50.
Reply: > 100 µM (inactive)

----------
tested on: UACC-62; assay: NCI tumour cell line growth inhibition, 48 h
Calls of active or inactive are those of the source. No stated cut-off is given here; in the data, active = GI50 up to about 1.1 µM and inactive = higher.
Hi! Could you answer with just one of these? yes (active), no (inactive)

Task item: // param item: CCOC1CN(C)/C(=N\c2cccc3ccccc23)S1 (configuration not stated) ; yields the recorded call
Reply: no

Task item: // param item: "COc1cccc2c(=O)c3c(O)c4cc(N(C)C)ccc4c(OC(C)=O)c3oc12" ; yields the recorded call
Reply: no

Task item: // param item: COC(=O)C1=C(C)C(=O)C2(CCCCCC2C(=O)OC)C1 (configuration not stated) ; yields the recorded call
Reply: no

Task item: // param item: "CCN(CC)CCCNc1ccc2nc(C)n3c4ccc(O)cc4c(=O)c1c23" ; yields the recorded call
Reply: no

Task item: // param item: "CN(C)CC/C(=N\Nc1c(Cl)cccc1Cl)c1ccccc1" ; yields the recorded call
Reply: no

Task item: // param item: "O=c1oc2ccccc2n1P(=O)(Oc1ccc(Cl)cc1)n1c(=O)oc2ccccc21" ; yields the recorded call
Reply: no

Task item: // param item: "Nc1c(-c2cn(Cc3ccccc3)c3ccccc23)[n+]([O-])c2ccccc2[n+]1[O-]" ; yields the recorded call
Reply: no

Task item: // param item: CC(=O)OC1CCn2nnc(CO)c21 (configuration not stated) ; yields the recorded call
Reply: no

Task item: // param item: "Cn1nc2ccc(Nc3cc(=O)[nH]c4ccc5nn(C)nc5c34)cc2n1" ; yields the recorded call
Reply: no

Task item: // param item: "CN(C)CCn1c(=O)c2ccc(NCCNCCO)c3c(=O)c4ccccc4n(c1=O)c23" ; yields the recorded call
Reply: yes

Task item: // param item: COC(=O)[C@H]1ON2O[C@H](OC3CCCC[C@@H]3c3ccccc3)C[C@@H]3CC[C@H]1[C@@]32C (some centres not stated) ; yields the recorded call
Reply: no

Task item: // param item: C=C1CC[C@@H](Br)C(C)(C)[C@]12CCC(C)(O)C(Cl)C2 (some centres not stated) ; yields the recorded call
Reply: no

Task item: // param item: [N-]=[N+]=NC1C2CC3C4CC5CC3[C@H](C2)C(C5)C41 (some centres not stated) ; yields the recorded call
Reply: no

Task item: // param item: "Cc1cccc2c(NCCCN(C)C)c3c([N+](=O)[O-])ccc(C)c3nc12" ; yields the recorded call
Reply: yes

Task item: // param item: "[O-][n+]1onc2c1-c1nonc1CC2" ; yields the recorded call
Reply: no

Task item: // param item: "NC1=C(Cl)C(=O)c2c(O)ccc(O)c2C1=O" ; yields the recorded call
Reply: no

Task item: // param item: CC(C(=O)ON1C(=O)CCC1=O)c1ccc(C(=O)c2ccccc2)s1 (configuration not stated) ; yields the recorded call
Reply: no

Task item: // param item: "CCOC(=O)c1sc2[n+](c1C)C(=O)/C(=C/c1ccccc1Cl)S2" ; yields the recorded call
Reply: yes

Task item: // param item: "O=C(/C=C/c1ccccc1)CSc1nc[nH]n1" ; yields the recorded call
Reply: no

Task item: // param item: "COc1cc(NCc2ccc3nc(-c4ccccc4)c(N)nc3c2)cc(OC)c1OC" ; yields the recorded call
Reply: no

Task item: // param item: "CCN1/C(=C/C(C)=C/c2sc3ccccc3[n+]2CC)Sc2ccccc21" ; yields the recorded call
Reply: yes

Task item: // param item: COC(=O)CC1C2CC3C(C2=O)C13 (configuration not stated) ; yields the recorded call
Reply: no

----------
tested on: NCI-H23; experiment: NCI tumour cell line growth inhibition, 48 h
Activity calls are given as the source filed them. Rule as the data show it: active = GI50 up to about 1.1 µM and inactive = higher.
Hi! Could you answer with just one of these? active, inactive

Task item: // param item: "CC(=O)O[C@H]1C(=O)[C@@]2(C)[C@H]([C@H](OC(=O)c3ccccc3)[C@]3(O)C[C@H](OC(=O)[C@H](O)[C@@H](NC(=O)C(C)(C)C)c4ccccc4)C(C)=C1C3(C)C)[C@]1(OC(C)=O)CO[C@@H]1C[C@@H]2O" ; yields the recorded call
Reply: active

Task item: // param item: "Cc1cccc2c(NCCCN(C)C)c3c([N+](=O)[O-])ccc(C)c3nc12" ; yields the recorded call
Reply: active

Task item: // param item: ClC1=C(Cl)C2OC3C=CCC3OC2C(Cl)=C1Cl (centres undefined) ; yields the recorded call
Reply: inactive

Task item: // param item: "O=C(O)c1ccc(/C=N/N=C2c3ccccc3-c3ccccc32)cc1" ; yields the recorded call
Reply: inactive

Task item: // param item: "Cc1cc(Cl)ccc1NC(=O)C(=O)Cc1nc2ccccc2o1" ; yields the recorded call
Reply: inactive

Task item: // param item: Cc1c2c(n(C)c1C)C(=O)C1C(C2=O)C2(C)c3ccccc3C1(C)c1ccccc12 (centres undefined) ; yields the recorded call
Reply: inactive

Task item: // param item: COc1ccc2c3c1OC1C(OC)(OC)CC4(C=C2)CN(C)CCC314 (centres undefined) ; yields the recorded call
Reply: inactive

Task item: // param item: "O=c1oc2ccc3ccccc3c2cc1-c1nc2ccccc2s1" ; yields the recorded call
Reply: inactive

Task item: // param item: "O=S1(=O)OCCOS(=O)(=O)C1Cc1cccc2ccccc12" ; yields the recorded call
Reply: inactive
